Give Kd for every item shown.
target: T1, cynomolgus monkey BCMA (cynomolgus monkey, UniProt A0A2K5UD97 1-53); assay: SPR, IgG on chip, cyBCMA analyte, 37C
T1 construct: Soluble analyte in SPR; construct not described; also called cyBCMA; Cyno BCMA
T1 sequence (A0A2K5UD97 entry or part of it): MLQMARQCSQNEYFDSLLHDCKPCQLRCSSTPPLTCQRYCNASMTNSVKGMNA

*Q* If you can, please state the reported Kd value of L3.PY/L1.FF/H2.QL (antibody, V domains shown, IgG) VH: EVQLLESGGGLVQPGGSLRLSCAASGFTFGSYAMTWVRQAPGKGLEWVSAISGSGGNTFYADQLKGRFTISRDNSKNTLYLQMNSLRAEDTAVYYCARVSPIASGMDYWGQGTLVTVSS VL: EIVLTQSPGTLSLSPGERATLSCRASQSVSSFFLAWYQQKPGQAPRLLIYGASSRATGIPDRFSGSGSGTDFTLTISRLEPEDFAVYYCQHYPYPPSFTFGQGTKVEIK .
*A* 1.91 nM

*Q* If you can, please state the reported Kd value of L3.PY/L3.KF/H2.QL (antibody, V domains shown, IgG) VH: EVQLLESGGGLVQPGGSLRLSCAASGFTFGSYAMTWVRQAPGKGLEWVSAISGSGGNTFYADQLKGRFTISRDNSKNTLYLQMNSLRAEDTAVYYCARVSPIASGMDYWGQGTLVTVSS VL: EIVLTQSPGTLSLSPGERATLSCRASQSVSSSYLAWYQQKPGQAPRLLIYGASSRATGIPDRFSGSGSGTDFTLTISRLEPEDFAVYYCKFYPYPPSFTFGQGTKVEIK .
*A* 2.18 nM

*Q* If you can, please state the reported Kd value of L3.PY/L1.FF/H2.YQ (antibody, V domains shown, IgG) VH: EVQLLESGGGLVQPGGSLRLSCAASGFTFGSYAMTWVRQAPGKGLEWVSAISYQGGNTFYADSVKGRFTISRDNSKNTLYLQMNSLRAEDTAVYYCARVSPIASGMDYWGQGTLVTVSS VL: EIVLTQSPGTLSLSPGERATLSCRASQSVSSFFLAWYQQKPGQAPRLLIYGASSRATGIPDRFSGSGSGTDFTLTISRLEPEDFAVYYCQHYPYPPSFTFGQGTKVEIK .
*A* 1.49 nM

The reported measurements were obtained from patent US20190241669A1.
